Property: melting point; scope: individual compounds

[[record]]
compound = "Cc1ccc(C2=NOCC(=O)N2)s1"
assay_result = "216 to 218 °C"

[[record]]
compound = "Cc1ccc(C2=NOCC(=O)N2)cc1"
assay_result = "140 to 141 °C"

[[record]]
compound = "Cc1ccc(C2=NOC(C)C(=O)N2)s1 (centres unmarked)"
assay_result = "167 to 169 °C"

[[record]]
compound = "COc1ccc(C2=NOCC(=O)N2)cc1"
assay_result = "188 to 190 °C"

[[record]]
compound = "CCC1ON=C(c2ccc(C)s2)NC1=O (centres unmarked)"
assay_result = "151 to 153 °C"

[[record]]
compound = "CC1ON=C(c2ccc([N+](=O)[O-])cc2)NC1=O (centres unmarked)"
assay_result = "247 to 249 °C"

[[record]]
compound = "CCC1ON=C(c2ccc(Oc3ccc(OC)cc3)cc2)NC1=O (centres unmarked)"
assay_result = "117 to 119 °C"

[[record]]
compound = "O=C1CON=C(c2ccc([N+](=O)[O-])cc2)N1"
assay_result = "248 to 250 °C"

[[record]]
compound = "CCC1ON=C(c2ccc([N+](=O)[O-])cc2)NC1=O (centres unmarked)"
assay_result = "177 to 179 °C"

[[record]]
compound = "CCC1ON=C(c2ccc(F)cc2)NC1=O (centres unmarked)"
assay_result = "153 to 155 °C"


Next, consider the following compound.
query: Looking for the measured melting point of O=C(O)CC1ON=C(c2ccc(OC(F)(F)F)cc2)NC1=O (centres unmarked) , can you help?
result: 208 to 211 °C
